target: T1, cell surface-associated uPA receptor (uPAR) on PMA-stimulated human U937 cells (human, UniProt Q03405 23-305); assay: flow cytometry, competition with FITC-pro-uPA on U937 cells (section 2.1)
T1 construct: whole, on cells; also called urokinase receptor; cellular native uPAR
T1 sequence (Q03405 23-305): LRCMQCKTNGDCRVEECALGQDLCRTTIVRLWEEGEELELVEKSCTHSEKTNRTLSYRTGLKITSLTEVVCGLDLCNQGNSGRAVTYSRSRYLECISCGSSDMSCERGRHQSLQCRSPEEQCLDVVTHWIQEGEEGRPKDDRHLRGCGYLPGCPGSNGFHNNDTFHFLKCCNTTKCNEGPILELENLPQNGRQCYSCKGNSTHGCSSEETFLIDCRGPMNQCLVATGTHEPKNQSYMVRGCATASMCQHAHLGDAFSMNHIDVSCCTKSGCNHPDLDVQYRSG
reported-property: IC50

CVSNKYFSNIHWC (Linear form) [linear peptide uPA19-31]	~800 nM
